- experimental_target: T1R umami taste receptor (Homo sapiens, UniProt Q7RTX0+Q7RTX1)
- Sequence (Q7RTX1 21-841): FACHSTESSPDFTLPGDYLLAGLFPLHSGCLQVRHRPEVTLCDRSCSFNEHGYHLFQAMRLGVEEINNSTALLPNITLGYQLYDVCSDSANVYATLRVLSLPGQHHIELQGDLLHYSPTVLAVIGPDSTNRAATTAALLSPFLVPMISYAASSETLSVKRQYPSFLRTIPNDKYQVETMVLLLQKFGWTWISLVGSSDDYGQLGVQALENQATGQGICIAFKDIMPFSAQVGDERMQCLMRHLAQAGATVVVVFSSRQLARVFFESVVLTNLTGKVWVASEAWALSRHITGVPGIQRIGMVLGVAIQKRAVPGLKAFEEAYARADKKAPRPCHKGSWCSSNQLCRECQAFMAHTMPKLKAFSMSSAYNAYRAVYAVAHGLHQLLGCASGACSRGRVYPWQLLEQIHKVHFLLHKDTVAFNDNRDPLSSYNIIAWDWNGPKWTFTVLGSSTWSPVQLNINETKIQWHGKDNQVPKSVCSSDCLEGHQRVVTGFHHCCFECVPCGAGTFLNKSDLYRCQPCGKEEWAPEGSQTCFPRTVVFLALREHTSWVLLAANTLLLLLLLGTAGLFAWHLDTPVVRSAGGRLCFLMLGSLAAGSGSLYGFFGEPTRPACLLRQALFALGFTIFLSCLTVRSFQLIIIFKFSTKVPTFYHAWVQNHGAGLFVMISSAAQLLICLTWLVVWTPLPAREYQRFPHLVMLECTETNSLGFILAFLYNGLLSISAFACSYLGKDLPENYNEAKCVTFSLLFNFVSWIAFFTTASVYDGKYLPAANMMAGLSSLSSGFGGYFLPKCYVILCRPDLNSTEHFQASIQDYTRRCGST
- Sequence (Q7RTX0 21-852): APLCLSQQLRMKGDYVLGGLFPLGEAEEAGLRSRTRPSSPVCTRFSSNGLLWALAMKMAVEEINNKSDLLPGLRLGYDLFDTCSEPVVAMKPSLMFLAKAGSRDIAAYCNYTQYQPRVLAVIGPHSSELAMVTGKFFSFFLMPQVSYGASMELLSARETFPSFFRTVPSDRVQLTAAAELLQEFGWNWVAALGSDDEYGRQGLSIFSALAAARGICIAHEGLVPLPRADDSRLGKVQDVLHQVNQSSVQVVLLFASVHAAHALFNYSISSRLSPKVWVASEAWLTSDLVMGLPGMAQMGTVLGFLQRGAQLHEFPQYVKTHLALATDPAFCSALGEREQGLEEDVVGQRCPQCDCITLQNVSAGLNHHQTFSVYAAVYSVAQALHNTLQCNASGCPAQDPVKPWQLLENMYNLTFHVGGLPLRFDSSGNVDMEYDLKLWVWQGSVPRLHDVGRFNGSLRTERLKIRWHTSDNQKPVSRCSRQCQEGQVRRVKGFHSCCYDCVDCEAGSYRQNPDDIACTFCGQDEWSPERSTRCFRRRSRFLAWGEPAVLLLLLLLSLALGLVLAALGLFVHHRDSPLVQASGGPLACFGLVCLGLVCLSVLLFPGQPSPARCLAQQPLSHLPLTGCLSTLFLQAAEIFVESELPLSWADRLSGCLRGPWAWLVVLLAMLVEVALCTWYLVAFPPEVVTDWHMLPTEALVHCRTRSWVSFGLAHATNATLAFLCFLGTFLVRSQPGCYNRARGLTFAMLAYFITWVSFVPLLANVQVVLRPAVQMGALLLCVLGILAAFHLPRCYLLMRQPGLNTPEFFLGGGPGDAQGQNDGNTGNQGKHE
- experiment: in vitro cell-based assay having cells that express the T1R umami taste receptor (enhancement of MSG)
- condition_label: compound at 10 μM
parameter_measured: MSG Enh. Ratio

>  <compound>
CCOC(=O)CC[C@H](NC(=O)/C=C/c1ccccc1)C(=O)OCC [Compound 140, Diethyl cinnamoyl-L-glutamate]

>  <parameter_measured>
MSG Enh. Ratio

>  <result>
5.6 @

$$$$
>  <compound>
CCOC(=O)[C@H](Cc1ccccc1)NC(=O)/C=C/c1ccc(OC)c(OC)c1

>  <parameter_measured>
MSG Enh. Ratio

>  <result>
4.8 @

$$$$
>  <compound>
COC(=O)[C@H](Cc1ccccc1)NC(=O)c1ccc(C)cc1

>  <parameter_measured>
MSG Enh. Ratio

>  <result>
3.3 @

$$$$
>  <compound>
COC(=O)[C@H](Cc1ccccc1)NC(=O)c1ccc2c(c1)OCO2

>  <parameter_measured>
MSG Enh. Ratio

>  <result>
3.7 @

$$$$
>  <compound>
CCC/C=C/C(=O)N[C@H](C(=O)OC)[C@@H](C)CC [Compound 174, Methyl ((E)-hex-2-enoyl)-L-isoleucinate]

>  <parameter_measured>
MSG Enh. Ratio

>  <result>
3.6 @

$$$$
>  <compound>
CCOC(=O)[C@@H](NC(=O)/C=C/c1ccccc1OC)C(C)C

>  <parameter_measured>
MSG Enh. Ratio

>  <result>
4.4 @

$$$$
>  <compound>
COC(=O)[C@H](Cc1ccccc1)NC(=O)/C=C/c1ccccc1OC

>  <parameter_measured>
MSG Enh. Ratio

>  <result>
2.8 @

$$$$
>  <compound>
CCOC(=O)CC[C@H](NC(=O)/C=C/c1ccc2c(c1)OCO2)C(=O)OCC

>  <parameter_measured>
MSG Enh. Ratio

>  <result>
2.9 @

$$$$
>  <compound>
CCOC(=O)[C@H](Cc1ccccc1)NC(=O)/C=C/C(C)C

>  <parameter_measured>
MSG Enh. Ratio

>  <result>
3.6 @

$$$$
>  <compound>
CCOC(=O)[C@H](Cc1ccccc1)NC(=O)/C=C/c1ccccc1 [Compound 141, Ethyl cinnamoyl-L-phenylalaninate]

>  <parameter_measured>
MSG Enh. Ratio

>  <result>
5.5 @

$$$$
>  <compound>
CCOC(=O)[C@H](Cc1ccc(OC)cc1)NC(=O)c1ccc(C)c(C)c1

>  <parameter_measured>
MSG Enh. Ratio

>  <result>
7.0 @

$$$$
>  <compound>
CCOC(=O)[C@H](Cc1ccccc1)NC(=O)c1ccc(C)c(C)c1

>  <parameter_measured>
MSG Enh. Ratio

>  <result>
4.6 @

$$$$
>  <compound>
CCOC(=O)[C@@H](NC(=O)/C=C/c1ccccc1)C(C)C [Compound 136, Ethyl cinnamoyl-L-valinate]

>  <parameter_measured>
MSG Enh. Ratio

>  <result>
5.4 @

$$$$
>  <compound>
CCOC(=O)[C@H](CCSC)NC(=O)/C=C/C(C)C

>  <parameter_measured>
MSG Enh. Ratio

>  <result>
3.5 @

$$$$

Each recorded value in this set is attributed to patent US20250024871A1.
